# targetOrSystem: METTL3/METTL14 (Homo sapiens, UniProt Q86U44)
# Sequence (Q86U44 whole entry): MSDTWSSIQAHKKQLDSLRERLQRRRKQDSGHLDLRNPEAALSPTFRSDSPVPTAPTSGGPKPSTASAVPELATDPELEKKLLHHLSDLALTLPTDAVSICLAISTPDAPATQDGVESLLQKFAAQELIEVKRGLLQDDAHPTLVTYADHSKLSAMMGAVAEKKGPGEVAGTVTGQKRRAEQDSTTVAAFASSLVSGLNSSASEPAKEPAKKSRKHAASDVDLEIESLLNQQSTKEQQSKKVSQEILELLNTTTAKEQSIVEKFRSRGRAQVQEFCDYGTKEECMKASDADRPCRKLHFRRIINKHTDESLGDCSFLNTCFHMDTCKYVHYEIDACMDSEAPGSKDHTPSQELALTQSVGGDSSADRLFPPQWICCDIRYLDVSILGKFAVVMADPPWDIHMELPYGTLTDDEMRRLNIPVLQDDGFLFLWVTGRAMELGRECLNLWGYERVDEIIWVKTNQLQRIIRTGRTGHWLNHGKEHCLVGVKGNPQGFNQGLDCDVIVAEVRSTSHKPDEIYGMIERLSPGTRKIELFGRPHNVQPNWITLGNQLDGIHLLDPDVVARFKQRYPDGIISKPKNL
# Sequence (Q9HCE5 whole entry, further chain): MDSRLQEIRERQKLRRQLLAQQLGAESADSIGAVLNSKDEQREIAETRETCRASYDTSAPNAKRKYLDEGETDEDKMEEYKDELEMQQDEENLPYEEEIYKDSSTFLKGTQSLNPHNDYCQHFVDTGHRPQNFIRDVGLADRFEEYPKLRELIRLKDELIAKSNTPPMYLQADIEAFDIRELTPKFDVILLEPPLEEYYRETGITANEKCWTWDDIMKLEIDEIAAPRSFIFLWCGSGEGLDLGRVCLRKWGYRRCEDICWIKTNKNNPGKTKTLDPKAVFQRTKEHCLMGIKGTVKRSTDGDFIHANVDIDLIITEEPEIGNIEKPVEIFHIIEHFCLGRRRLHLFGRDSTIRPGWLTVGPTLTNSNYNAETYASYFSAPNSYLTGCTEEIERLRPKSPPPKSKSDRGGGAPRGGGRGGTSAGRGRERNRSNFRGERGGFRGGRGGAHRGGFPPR
# procedureText: Displacement of [3H]-SAM from METTL3/METTL14 (unknown origin) using 5'biotinylated-UACACUCGAUCUGGACUAAAGGUGCUC-3' RNA as substrate preincubated for 10 mins followed by substrate/[3H]-SAM addition measured after 90 mins by SPA
# Format: protein-complex assay
pIC50: −log10 of the molar value.
propertyName: pIC50

Recorded pIC50, per entry:
> print(dat)
                                   compound                            targetorsystem  propertyname  recordednumber
1  COc1cncc(-c2cn(Cc3ccc(N4CCC[C@@H](NCC5CCC5)C4)nc3)nn2)c1  METTL3/METTL14 (Homo sapiens, UniProt Q86U44)         pIC50            8.15
2  COc1cncc(-c2cn(Cc3ccc(N4CC5(CCCC5NCC5CCC5)C4)nn3)nn2)c1 (centres undefined)  METTL3/METTL14 (Homo sapiens, UniProt Q86U44)         pIC50            6.69

P = CCOc1cncc(-c2cn(C(C)n3ccc(N4CCC[C@@H](NCC5CCC5)C4)cc3=O)nn2)c1 (some centres undefined)
Q = COc1cncc(-c2cn(Cc3ccc(N4CCC[C@@H](NCC5CCC5)C4)cc3)nn2)c1
Q: Between P and Q , whose recorded pIC50 is greater? Indicate which entry you chose by stating its label.
A: P
